# MEASUREMENT TARGET: D-2-hydroxyglutarate dehydrogenase (D-2-HGDH) (Homo sapiens, UniProt Q8N465)
# Construct: gene D2HGDH
# Sequence (Q8N465 51-521): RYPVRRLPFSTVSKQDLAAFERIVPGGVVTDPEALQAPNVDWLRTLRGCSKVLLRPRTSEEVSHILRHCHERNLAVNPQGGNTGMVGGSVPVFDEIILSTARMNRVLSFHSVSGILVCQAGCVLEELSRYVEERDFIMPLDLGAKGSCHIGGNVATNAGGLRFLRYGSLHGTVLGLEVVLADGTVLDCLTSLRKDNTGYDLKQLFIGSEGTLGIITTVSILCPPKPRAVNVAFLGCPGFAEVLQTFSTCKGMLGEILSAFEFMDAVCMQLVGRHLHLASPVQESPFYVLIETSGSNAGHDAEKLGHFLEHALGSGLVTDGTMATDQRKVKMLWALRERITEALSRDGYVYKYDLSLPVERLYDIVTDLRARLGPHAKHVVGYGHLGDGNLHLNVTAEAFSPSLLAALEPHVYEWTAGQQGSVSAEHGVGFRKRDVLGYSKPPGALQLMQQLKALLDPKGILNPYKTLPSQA
# PROTOCOL SUMMARY: crystal structure ([…] Å); SPR with DTT-treated protein (reduced FAD); no measurable binding to the untreated protein
RECORDED METRIC: pKd
When answering, recall that pKd equals minus log10 of the concentration in mol/L, and write that number alone.

With D-2-hydroxyglutarate dehydrogenase (D-2-HGDH) (Homo sapiens, UniProt Q8N465) as the test system, provide measured pKd for this molecule: O=C(O)CCC(=O)C(=O)O [2-OG, 2-oxoglutarate]
2.15
